| compound | melting point |
| --- | --- |
| CSc1cccc(NC(=O)NCC(=O)N2[C@@H](C(=O)OC(C)(C)C)C[C@H](C(=O)O)[C@H]2c2ccccc2)c1 (racemic) | 130 °C |
| CCOC(=O)c1cn(CC)c2nc(OC)c(N)cc2c1=O | 250 to 252 °C |
| Cc1c(C)c2c(c(C)c1N)CC(C)(CN1CCN(C)CC1)O2 (stereo not given) | 76 to 77 °C |
| COc1ccc(SCCCCNC(P(=O)(O)O)P(=O)(O)O)cc1 | 188 to 189 °C |
| CCOC(=O)Cc1cccc(S(=O)(=O)c2ccccc2)c1[N+](=O)[O-] | 105 to 106 °C |
